B1: Vpu with LgBiT fused to its C-terminus (pBiT1.1-C-vpu) [HIV-1] / RBM10 fused to SmBiT (pBiT2.1-C-rbm10) [human] (parent complex)
chain 1: MQPIQIAIAALVVAIIIAIVVWSIVIIEYRKILRQRKIDRLIDRLIERAEDSGNESEGEISALVEMGVEMGHHAPWDIDDL
chain 2: MEYERRGGRGDRTGRYGATDRSQDDGGENRSRDHDYRDMDYRSYPREYGSQEGKHDYDDSSEEQSAEDSYEASPGSETQRRRRRRHRHSPTGPPGFPRDGDYRDQDYRTEQGEEEEEEEDEEEEEKASNIVMLRMLPQAATEDDIRGQLQSHGVQAREVRLMRNKSSGQSRGFAFVEFSHLQDATRWMEANQHSLNILGQKVSMHYSDPKPKINEDWLCNKCGVQNFKRREKCFKCGVPKSEAEQKLPLGTRLDQQTLPLGGRELSQGLLPLPQPYQAQGVLASQALSQGSEPSSENANDTIILRNLNPHSTMDSILGALAPYAVLSSSNVRVIKDKQTQLNRGFAFIQLSTIVEAAQLLQILQALHPPLTIDGKTINVEFAKGSKRDMASNEGSRISAASVASTAIAAAQWAISQASQGGEGTWATSEEPPVDYSYYQQDEGYGNSQGTESSLYAHGYLKGTKGPGITGTKGDPTGAGPEASLEPGADSVSMQAFSRAQPGAAPGIYQQSAEASSSQGTAANSQSYTIMSPAVLKSELQSPTHPSSALPPATSPTAQESYSQYPVPDVSTYQYDETSGYYYDPQTGLYYDPNSQYYYNAQSQQYLYWDGERRTYVPALEQSADGHKETGAPSKEGKEKKEKHKTKTAQQIAKDMERWARSLNKQKENFKNSFQPISSLRDDERRESATADAGYAILEKKGALAERQHTSMDLPKLASDDRPSPPRGLVAAYSGESDSEEEQERGGPEREEKLTDWQKLACLLCRRQFPSKEALIRHQQLSGLHKQNLEIHRRAHLSENELEALEKNDMEQMKYRDRAAERREKYGIPEPPEPKRRKYGGISTASVDFEQPTRDGLGSDNIGSRMLQAMGWKEGSGLGRKKQGIVTPIEAQTRVRGSGLGARGSSYGVTSTESYKETLHKTMVTRFNEAQ

Variants of: B1
Assay: NanoBiT luciferase complementation reporter assay; HEK293T cells, co-transfection, read after 2 days; parent: 1; read off a plot
Field: ratio to parent. Provide a value for each of the variants that follow.

Which measured ratio to parent value corresponds to chain 1 H73A ?
~0.98

Which measured ratio to parent value corresponds to chain 1 D77A ?
~0.6

Which measured ratio to parent value corresponds to chain 1 I26A ?
~0.56
